B1: library; a variant is named by its letters at N, in order (parent)
chain: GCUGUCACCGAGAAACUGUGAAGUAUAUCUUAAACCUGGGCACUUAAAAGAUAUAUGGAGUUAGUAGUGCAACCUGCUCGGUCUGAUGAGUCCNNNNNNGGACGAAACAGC

variants of: B1; assay: normalized RNA/DNA level without ligand (relative to sTRSVctl = 100) (log10 (% of sTRSVctl)); HEK293T; ligand: cyclic di-GMP (c-di-GMP-II aptamer); higher = less ribozyme self-cleavage, higher mRNA level; settings: reporter: mCherry (pCS4076), ligand present: no
Each entry below carries its reported normalized RNA/DNA level without ligand (log10).
Measurement Type: normalized RNA/DNA level without ligand (log10)

# Sequence String, Readout Value
records = [
    ("GCUGUCACCGAGAAACUGUGAAGUAUAUCUUAAACCUGGGCACUUAAAAGAUAUAUGGAGUUAGUAGUGCAACCUGCUCGGUCUGAUGAGUCCGCCCUAGGACGAAACAGC", 1.69),
    ("GCUGUCACCGAGAAACUGUGAAGUAUAUCUUAAACCUGGGCACUUAAAAGAUAUAUGGAGUUAGUAGUGCAACCUGCUCGGUCUGAUGAGUCCUGGUGCGGACGAAACAGC", 1.72),
    ("GCUGUCACCGAGAAACUGUGAAGUAUAUCUUAAACCUGGGCACUUAAAAGAUAUAUGGAGUUAGUAGUGCAACCUGCUCGGUCUGAUGAGUCCCGUUGCGGACGAAACAGC", 1.78),
]

Provenance of the data: the supplement of paper PMC6757056
